These measurements were taken from patent US10034886B2.

# tested_on: GLP-1R (Homo sapiens, UniProt P43220)
# Construct: host or cells: GLP-1R CRE-bla CHO-K1 cells
# Sequence (P43220 24-463): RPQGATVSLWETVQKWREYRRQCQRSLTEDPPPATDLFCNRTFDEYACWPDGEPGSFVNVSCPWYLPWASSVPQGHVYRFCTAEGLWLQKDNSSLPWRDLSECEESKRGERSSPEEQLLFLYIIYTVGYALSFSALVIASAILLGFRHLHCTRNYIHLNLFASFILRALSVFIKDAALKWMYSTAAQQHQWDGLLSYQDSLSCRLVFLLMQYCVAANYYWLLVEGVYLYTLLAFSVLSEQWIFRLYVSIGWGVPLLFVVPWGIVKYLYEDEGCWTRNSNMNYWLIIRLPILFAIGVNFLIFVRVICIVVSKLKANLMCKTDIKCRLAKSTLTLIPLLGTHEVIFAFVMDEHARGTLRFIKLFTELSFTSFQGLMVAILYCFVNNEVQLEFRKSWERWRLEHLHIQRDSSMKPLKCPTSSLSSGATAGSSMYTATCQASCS
# Sequence (P01275 100-127 partner limits assumed): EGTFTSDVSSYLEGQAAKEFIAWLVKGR
# experiment: EC20 GLP-1(9-36) PAM cAMP assay: dose response of compound in the presence of fixed concentration of GLP-1(9-36)
# Format: cell-based
# conditions: dose response of compound in presence of fixed concentration of GLP-1(9-36), GLP-1R CRE-bla CHO-K1 cells, read-out: EC20 GLP-1(9-36) PAM EC50
readout_type: EC50

Please review the entries below; each comes with its answer.
• CCCCCCCOc1ccc(-c2cnc(-c3ccc(C[C@H](NC(=O)c4ccc(C(C)(C)C)cc4)C(=O)NCCC(=O)O)cc3)nc2)cc1C#N = 5000 to 10000 nM
• CC(C)(C)c1ccc(C(=O)N[C@@H](Cc2ccc(-c3ncc(-c4ccc([C@H]5CC[C@H](C(F)(F)F)CC5)cc4)cn3)cc2)C(=O)N2CC(C(=O)O)C2)s1 = < 800 nM
• CCCCCCCOc1ccc(-c2cnc(-c3ccc(C[C@H](NC(=O)c4ccc(C(C)(C)C)s4)C(=O)N[C@@H](CC(=O)N[C@@H](C)C(=O)O)C(=O)O)cc3)nc2)cc1 = < 800 nM
• CC[C@H]1CC[C@H](c2ccc(-c3cnc(-c4ccc(C[C@H](NC(=O)c5ccc(C6CC6)s5)C(=O)N5CC(C(=O)O)C5)cc4)nc3)cc2)CC1 = < 800 nM
• CCOC1CC(c2ccc(-c3cnc(-c4ccc(C[C@H](NC(=O)c5ccc(C(C)(C)C)s5)C(=O)N[C@H](C)C(=O)O)cc4)nc3)cc2)C1 (stereo partly drawn) = 800 to 2500 nM
• C[C@@H](NC(=O)[C@H](Cc1ccc(-c2ncc(-c3ccc(OCc4ccccc4)c(F)c3)cn2)cc1)NC(=O)c1ccc(C(C)(C)C)s1)C(=O)O = 800 to 2500 nM

Now for another entry.
Task item: For the molecule CCCCCCOc1ccc(-c2cnc(-c3ccc(C[C@H](NC(=O)c4ccc(C(C)(C)C)s4)C(=O)N4CC(C(=O)O)C4)cc3)nc2)cc1 , give its reported EC50.
Reply: 800 to 2500 nM

====

# tested_on: GLP-1R (Homo sapiens, UniProt P43220)
# Construct: host or cells: GLP-1R CRE-bla CHO-K1 cells
# experiment: EC20 GLP-1(9-36) PAM cAMP assay: dose response of compound in the presence of fixed concentration of GLP-1(9-36)
# Format: cell-based
# conditions: dose response of compound in presence of fixed concentration of GLP-1(9-36), GLP-1R CRE-bla CHO-K1 cells, read-out: EC20 GLP-1(9-36) PAM EC50
readout_type: EC50

Recorded results for 2 compounds are shown here.
• COc1ccc(-c2cnc(-c3ccc(C[C@H](NC(=O)c4ccc(C(C)(C)C)s4)C(=O)N[C@H](C)C(=O)O)cc3)nc2)cc1 [Compound 730] = 2.5 to 5 µM
• CCc1ccc(-c2ccc(-c3cnc(-c4ccc(C[C@H](NC(=O)c5ccc(C(C)(C)C)s5)C(=O)N[C@H](C)C(=O)O)cc4)nc3)c(F)c2)cc1 [Compound 1173] = < 0.8 µM

Task item: Please list EC50 recorded for the compound CC(C)(C)c1ccc(C(=O)N[C@@H](Cc2ccc(-c3ncc(-c4ccc(C(F)(F)F)cc4)cn3)cc2)C(=O)N2CC(C(=O)O)C2)s1 [Compound 788]
Reply: 5 to 10 µM
